Values from patent US9452986B2

Test system: spinal nerve ligated rats
Protocol: Rat spinal nerve ligation (SNL) model of neuropathic pain, paw withdrawal threshold
Type: in vivo
Measurement Context: SNL dose 100 mg/kg; rat, von Frey paw withdrawal threshold; read-out: SNL MPE
Experimental: Rat Spinal Nerve Ligation (SNL) Model of Neuropathic Pain. […] Mechanical sensitivity was measured using calibrated von Frey filaments (Stoelting, Wood Dale, Ill.). […] A percent maximal possible effect (% MPE) of testing compound was calculated according to the formula: (Log [compound−treated threshold]−Log [vehicle−treated threshold])/(Log [maximum threshold]−Log [vehicle−treated threshold])×100%, where the maximum threshold was equal to 15 g. […]
Metric Name: inhibition in vivo at 100 mg/kg (%)
Lab book: enter the figure in %, no units written.

• O=C(c1ccc2cc(Oc3ccc(C(F)(F)F)cn3)ccc2n1)N1CC[C@@H](F)C1 = 81

Task item: Which inhibition in vivo at 100 mg/kg value belongs to O=C(NC1CC(F)(F)C1)c1ccc2cc(Oc3ccc(C(F)(F)F)cn3)ccc2n1 ?
Reply: 84

Task item: Which inhibition in vivo at 100 mg/kg value belongs to O=C(c1ccc2cc(Oc3ccc(C(F)(F)F)cn3)ccc2n1)N1CC[C@H](F)C1 ?
Reply: 90

Task item: Which inhibition in vivo at 100 mg/kg value belongs to O=C(c1ccc2cc(Oc3ccc(C(F)(F)F)cn3)ccc2n1)N1CCNCC1 ?
Reply: 49

Task item: Which inhibition in vivo at 100 mg/kg value belongs to O=C(c1ccc2cc(Oc3ccc(C(F)(F)F)cn3)ccc2n1)N1C[C@@H](F)C[C@H]1CO ?
Reply: 94

Task item: Which inhibition in vivo at 100 mg/kg value belongs to O=C(c1ccc2cc(Oc3ccc(C(F)(F)F)cn3)ccc2n1)N1CCC(F)C1 (centres unmarked) ?
Reply: 74

Task item: Which inhibition in vivo at 100 mg/kg value belongs to COCCNC(=O)c1ccc2cc(Oc3ccc(C(F)(F)F)cn3)ccc2n1 ?
Reply: 72

Task item: Which inhibition in vivo at 100 mg/kg value belongs to O=C(NC1CCS(=O)(=O)C1)c1ccc2cc(Oc3ccc(C(F)(F)F)cn3)ccc2n1 (centres unmarked) ?
Reply: 54
